Catalogue of compounds with associated logP
Test: logP determination via retention times, calibrated with unbranched alkan-2-ones
Type: physicochemical
Settings: method *: HPLC reversed-phase C 18, temperature 40° C.; mobile phase 0.1% aqueous formic acid and acetonitrile; linear gradient 10% to 95% acetonitrile

# example entries with known answers
>>> print(df.to_string())
                                   compound  valuemeasured
0  CC(C)(C)C(=O)Cc1ccc(Nc2ncc(F)c(NC3CC3)n2)cc1 [compound 589]          1.92*
1  CC(=O)c1ccc(Nc2ncc(C(F)(F)F)c(NC3CC3)n2)cc1 [compound 656]          2.7*;

Which logP is reported for this compound? COc1cc(Nc2ncc(Br)c(NC3CC3)n2)ccc1F [compound 568] 2.05*

And CC(=O)N(C)c1ccc(Nc2ncc(F)c(NC3CC3)n2)cc1 [compound 582] ? 1.23*

Quick one: O=C1CCCN1c1ccc(Nc2ncc(F)c(NC3CC3)n2)cc1 [compound 593] 1.35*

Moving on to the next compound: COC(=O)Nc1cccc(Nc2ncc(C(F)(F)F)c(NC3CC3)n2)c1 [compound 660] 2.16*;

Same read-out for O=C(NCC(F)(F)F)c1cccc(Nc2ncc(Cl)c(NC3CC3)n2)c1 [compound 630] ? 1.8*

Subsequent entry: CSc1ccc(Nc2ncc(C(F)(F)F)c(NC3CC3)n2)cc1 [compound 653] 3.1*;

Origin of values: patent US20100081679A1
